measurement_setup: in NMP, 283.15 K
endpoint_name: solubility (mole fraction)

Entry `CC(=O)Nc1ccc([N+](=O)[O-])cc1` , solubility (mole fraction) reported as 0.0841

---

measurement_setup: in n-heptanol, 283.15 K
endpoint_name: solubility (mole fraction)
Answer as a number with no unit attached.

Entry `CC(=O)Nc1ccc([N+](=O)[O-])cc1` , solubility (mole fraction) reported as 0.00303

---

measurement_setup: in DMF, 313.15 K
endpoint_name: solubility (mole fraction)

Entry `CC(=O)Nc1ccc([N+](=O)[O-])cc1` , solubility (mole fraction) reported as 0.156

---

measurement_setup: in 1,4-dioxane, 288.15 K
endpoint_name: solubility (mole fraction)
Answer as a number with no unit attached.

Entry `CC(=O)Nc1ccc([N+](=O)[O-])cc1` , solubility (mole fraction) reported as 0.00627

---

measurement_setup: in 1,4-dioxane, 318.15 K
endpoint_name: solubility (mole fraction)
Answer as a number with no unit attached.

Entry `CC(=O)Nc1ccc([N+](=O)[O-])cc1` , solubility (mole fraction) reported as 0.0151

---

measurement_setup: in acetonitrile, 308.15 K
endpoint_name: solubility (mole fraction)
Answer as a number with no unit attached.

Entry `CC(=O)Nc1ccc([N+](=O)[O-])cc1` , solubility (mole fraction) reported as 0.0065

---

measurement_setup: in methanol, 323.15 K
endpoint_name: solubility (mole fraction)
Answer as a number with no unit attached.

Entry `CC(=O)Nc1ccc([N+](=O)[O-])cc1` , solubility (mole fraction) reported as 0.00772

---

measurement_setup: in n-propanol, 303.15 K
endpoint_name: solubility (mole fraction)
Answer as a number with no unit attached.

Entry `CC(=O)Nc1ccc([N+](=O)[O-])cc1` , solubility (mole fraction) reported as 0.00496

---

measurement_setup: in ethyl acetate, 288.15 K
endpoint_name: solubility (mole fraction)
Answer as a number with no unit attached.

Entry `CC(=O)Nc1ccc([N+](=O)[O-])cc1` , solubility (mole fraction) reported as 0.00481

---

measurement_setup: in DMF, 318.15 K
endpoint_name: solubility (mole fraction)
Answer as a number with no unit attached.

Entry `CC(=O)Nc1ccc([N+](=O)[O-])cc1` , solubility (mole fraction) reported as 0.171

---

measurement_setup: in acetonitrile, 278.15 K
endpoint_name: solubility (mole fraction)
Answer as a number with no unit attached.

Entry `CC(=O)Nc1ccc([N+](=O)[O-])cc1` , solubility (mole fraction) reported as 0.00235

---

measurement_setup: in n-propanol, 293.15 K
endpoint_name: solubility (mole fraction)

Entry `CC(=O)Nc1ccc([N+](=O)[O-])cc1` , solubility (mole fraction) reported as 0.00352

---

measurement_setup: in ethanol, 278.15 K
endpoint_name: solubility (mole fraction)
Answer as a number with no unit attached.

Entry `CC(=O)Nc1ccc([N+](=O)[O-])cc1` , solubility (mole fraction) reported as 0.00182

---

measurement_setup: in ethanol, 303.15 K
endpoint_name: solubility (mole fraction)
Answer as a number with no unit attached.

Entry `CC(=O)Nc1ccc([N+](=O)[O-])cc1` , solubility (mole fraction) reported as 0.00458

---

measurement_setup: in NMP, 318.15 K
endpoint_name: solubility (mole fraction)
Answer as a number with no unit attached.

Entry `CC(=O)Nc1ccc([N+](=O)[O-])cc1` , solubility (mole fraction) reported as 0.21
